tested on: A673 NR0B1-luciferase reporter, viability-normalised luminescence; assay: suppressors of NR0B1-promoter luciferase reporter, dose response, EWS/Fli inhibitor project, luciferase luminescence, A673 cells, cherry-pick (AID 686920)

{"compound": "COc1ccc(-c2cnc3c(NC=O)cc(-c4ccccc4OC)cn23)cc1OC", "AC35": "0.065 µM"}
{"compound": "CCc1cnc(N2[C@H](C#N)[C@H](c3ccc(C#Cc4ccccc4F)cc3)[C@H]2CO)s1", "AC35": "9.23 µM"}
{"compound": "O=C(O)c1ccccc1C(=O)Nc1ccc(Oc2ccc3ccccc3c2)cc1", "AC35": "5.69 µM"}
{"compound": "COC(=O)C[C@@H]1CC[C@@H]2[C@H](COc3ccc(NC(=O)c4ccccc4)cc3C(=O)N2C)O1", "AC35": "53.4 µM"}
{"compound": "CN(C)c1ccc(N=Nc2ccccc2Br)cc1", "AC35": "21.3 µM"}
{"compound": "O=C1c2ccc3c4c(ccc(c24)C(=O)N1c1cccc(O)c1)C(=O)N(c1cccc(O)c1)C3=O", "AC35": "5.35 µM"}
{"compound": "C[C@]12CC[C@H](O)C[C@H]1CC[C@@H]1[C@@H]2C[C@@H](O)[C@]2(C)[C@@H](C3=CC(=O)OC3)CC[C@]12O", "AC35": "1 µM"}
{"compound": "OCC1OC(n2cnc3c(NCc4ccco4)ncnc32)C(O)C1O (centres undefined)", "AC35": "2.81 µM"}
{"compound": "C[C@@H]1CN([C@H](C)CO)C(=O)CCCn2nncc2CO[C@H]1CN(C)Cc1ccc(Oc2ccccc2)cc1", "AC35": "34.1 µM"}
{"compound": "C[C@@H]1CN([C@H](C)CO)C(=O)c2cc(N(C)C)ccc2O[C@H]1CN(C)Cc1ccc(C(=O)Nc2ccccc2N)cc1", "AC35": "9.4 µM"}
{"compound": "C[C@H](CO)N1C[C@H](C)[C@H](CN(C)Cc2ccc(C(=O)Nc3ccccc3N)cc2)Oc2ccc(N(C)C)cc2C1=O", "AC35": "11.7 µM"}
{"compound": "C[C@@H]1CN([C@@H](C)CO)S(=O)(=O)c2ccc(C#CCN(C)C)cc2O[C@@H]1CN(C)Cc1ccncc1", "AC35": "60.2 µM"}
{"compound": "CCN(CC)c1ccc(C2NC(=O)c3ccccc3N2)cc1 (centres undefined)", "AC35": "3.8 µM"}
{"compound": "CCC1=Nc2cc(C(=O)NCC3CCCO3)ccc2Sc2ccc(Br)cc21 (centres undefined)", "AC35": "6.5 µM"}
{"compound": "O=c1[nH]c(=O)n([C@H]2C[C@H](O)[C@@H](CO)O2)cc1F", "AC35": "2.63 µM"}
{"compound": "O=C(O)c1ccc(N/N=C/c2c[nH]c3ccccc23)cc1", "AC35": "8.82 µM"}
{"compound": "CCN(Cc1ccccc1)c1ccc(/C=N/N=C(N)N)cc1", "AC35": "10.6 µM"}
{"compound": "C/C(=C\\c1ccccc1)C(=O)N1CCC=CC1=O", "AC35": "10.3 µM"}
{"compound": "C[C@H]1CN([C@@H](C)CO)C(=O)c2cc(NC(=O)C3CCCCC3)ccc2O[C@H]1CN(C)Cc1ccc(C(=O)Nc2ccccc2N)cc1", "AC35": "4.8 µM"}
